Origin of measurements: patent US20150087627A1

target: PI3K δ (Homo sapiens, UniProt O00329); construct: purchased Upstate / Millipore Corporation; assay: PI 3-Kinase (human) HTRF assay, PI3K δ; format: biochemical; conditions: read-out: PI3K δ IC50
Sequence (O00329 whole entry): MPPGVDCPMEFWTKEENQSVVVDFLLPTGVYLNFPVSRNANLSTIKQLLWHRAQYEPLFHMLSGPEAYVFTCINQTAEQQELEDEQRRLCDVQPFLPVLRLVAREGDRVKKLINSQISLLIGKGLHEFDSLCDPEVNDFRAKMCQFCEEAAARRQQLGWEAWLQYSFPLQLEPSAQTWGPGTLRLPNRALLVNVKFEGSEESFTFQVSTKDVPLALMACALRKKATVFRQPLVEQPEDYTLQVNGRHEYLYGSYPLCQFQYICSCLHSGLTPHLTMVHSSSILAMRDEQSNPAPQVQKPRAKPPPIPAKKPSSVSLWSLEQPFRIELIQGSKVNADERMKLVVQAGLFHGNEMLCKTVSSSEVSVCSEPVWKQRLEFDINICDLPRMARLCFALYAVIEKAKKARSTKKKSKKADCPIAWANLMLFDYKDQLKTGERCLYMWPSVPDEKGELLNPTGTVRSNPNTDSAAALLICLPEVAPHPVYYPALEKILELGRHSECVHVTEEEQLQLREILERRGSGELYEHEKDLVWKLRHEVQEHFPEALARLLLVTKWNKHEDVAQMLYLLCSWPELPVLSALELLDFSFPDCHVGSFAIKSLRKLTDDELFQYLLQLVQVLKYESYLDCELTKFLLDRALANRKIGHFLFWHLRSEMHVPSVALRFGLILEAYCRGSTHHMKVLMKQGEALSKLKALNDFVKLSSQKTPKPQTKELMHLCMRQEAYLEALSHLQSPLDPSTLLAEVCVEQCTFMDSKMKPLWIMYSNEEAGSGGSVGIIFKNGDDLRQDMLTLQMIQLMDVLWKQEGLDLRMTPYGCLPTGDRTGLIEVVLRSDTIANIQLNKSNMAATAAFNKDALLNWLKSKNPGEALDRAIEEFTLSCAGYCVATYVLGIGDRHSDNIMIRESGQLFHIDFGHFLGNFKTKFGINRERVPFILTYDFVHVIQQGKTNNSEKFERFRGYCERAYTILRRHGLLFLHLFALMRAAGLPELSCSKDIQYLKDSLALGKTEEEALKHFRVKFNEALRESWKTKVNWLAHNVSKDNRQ
Sequence (P27986 whole entry partner): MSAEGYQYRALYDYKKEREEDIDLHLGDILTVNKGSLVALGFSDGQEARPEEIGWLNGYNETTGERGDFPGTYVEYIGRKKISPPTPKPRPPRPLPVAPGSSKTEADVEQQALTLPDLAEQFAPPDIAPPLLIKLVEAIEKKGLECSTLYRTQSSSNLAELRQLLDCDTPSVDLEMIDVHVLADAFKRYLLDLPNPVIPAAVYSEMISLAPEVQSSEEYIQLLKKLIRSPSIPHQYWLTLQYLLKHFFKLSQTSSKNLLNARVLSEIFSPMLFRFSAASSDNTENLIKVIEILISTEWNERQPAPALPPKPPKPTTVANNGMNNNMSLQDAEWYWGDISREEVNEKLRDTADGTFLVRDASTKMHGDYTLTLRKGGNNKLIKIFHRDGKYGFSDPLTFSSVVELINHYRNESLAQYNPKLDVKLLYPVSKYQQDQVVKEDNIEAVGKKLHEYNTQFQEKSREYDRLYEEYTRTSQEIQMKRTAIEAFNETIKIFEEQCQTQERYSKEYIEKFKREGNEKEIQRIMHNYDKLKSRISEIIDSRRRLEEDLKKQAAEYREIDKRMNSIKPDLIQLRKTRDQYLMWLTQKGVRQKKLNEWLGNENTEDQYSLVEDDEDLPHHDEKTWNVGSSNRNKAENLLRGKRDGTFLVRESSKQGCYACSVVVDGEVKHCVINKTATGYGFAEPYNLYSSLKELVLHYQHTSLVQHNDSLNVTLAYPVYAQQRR
PROPERTY_LABEL: IC50

>>> result("COc1ccc(-c2ccc3ncc(C(=O)N4CCOCC4)n3c2)cc1S(=O)(=O)Nc1ccccc1")
"> 10 µM"
>>> result("O=C(c1cnc2ccc(-c3ccc4oc(Nc5ccccc5)nc4c3)cn12)N1CCOCC1")
"> 10 µM"
>>> result("Nc1nc2cc(-c3ccc4ncc(N5CCS(=O)(=O)CC5)nc4c3)ccc2o1")
"> 10 µM"
>>> result("Cc1cc(-c2ccc3oc(N)nc3c2)cc2c(C(=O)N3CCCC3)cnn12")
"< 1 µM"
